System: Human RSV-A (“Long” strain)
Test: RSV in vitro cytoprotection assay (CPE, ATPlite) in HEp-2 cells
Type: cell-based
Details: human respiratory syncytial virus, 96 h; HEp-2 cells, 4-day incubation, ATPlite readout; read-out: Human RSV-A (“Long” strain) EC50
Experimental: RSV is a single stranded negative sense RNA virus that causes respiratory tract infections which can be dangerous to infants, the elderly, and immunosuppressed individuals. Currently there is no vaccine, and therapeutic options are both costly and of limited effectiveness. These approved treatments are Ribavirin, and Palivizumab/Synagis (a monoclonal antibody). […] Cell viability is measured several days later along with separate measurements of compound cytotoxicity. […]
pEC50: −log10 of the molar value.
parameter.measured: pEC50

* O=C(Nc1ccc(C(=O)N2CCc3cc(-c4nc5ccccc5[nH]4)sc3-c3ccc(F)cc32)cc1)c1cc2c(nc1N1CC3(CCOCC3)C1)CCC2 | 7.30 to 8.00
* Cc1cnc(N2CC3(CCOCC3)C2)c(C(=O)Nc2ccc(C(=O)N3CCc4c(sc(C(=O)Nc5ccc(F)cc5F)c4F)-c4ccccc43)cc2)c1 | > 8.00
* O=C(Nc1c(F)cccc1F)c1cc2c(s1)-c1ccc(F)cc1N(C(=O)c1ccc(NC(=O)c3cccnc3-c3c[nH]c4ccncc34)cc1)CC2 | < 7.30

Next item in the queue.
Q) Can you share its pEC50? I mean this compound: Cc1cnc(N2CC3(CCOCC3)C2)c(C(=O)Nc2ccc(C(=O)N3CCc4c(sc(C(=O)Nc5cc(F)ccc5F)c4F)-c4ccccc43)cc2)c1
A) 7.30 to 8.00

###

system: Human RSV-A (“Long” strain); test: RSV in vitro cytoprotection assay (CPE, ATPlite) in HEp-2 cells; assay type: cell-based; details: human respiratory syncytial virus, 96 h; HEp-2 cells, 4-day incubation, ATPlite readout; read-out: Human RSV-A (“Long” strain) EC50
pEC50: −log10 of the molar value.
parameter.measured: pEC50

• Cc1cnc(N2CC3(CCOCC3)C2)c(C(=O)Nc2ccc(C(=O)N3CCc4cc(-c5cnsc5)sc4-c4ccc(F)cc43)cc2)c1 = > 8.00
• O=C(Nc1c(F)cccc1C(F)(F)F)c1cc2c(o1)-c1ccccc1N(C(=O)c1ccc(NC(=O)c3cc4c(nc3N3CC5(CCOCC5)C3)CCC4)cc1)CC2 = > 8.00
• Cc1cnc(N2CC3(CCOCC3)C2)c(C(=O)Nc2ccc(C(=O)N3CCc4cc(-c5cc[nH]c(=O)c5)sc4-c4ccc(F)cc43)cc2)c1 = > 8.00
• Cc1cnc(N2CC3(CCOCC3)C2)c(C(=O)Nc2ccc(C(=O)N3CCc4c(sc(C(=O)Nc5ncc(C)s5)c4F)-c4ccccc43)cc2)c1 = 7.30 to 8.00
• Cc1ccc(C(=O)Nc2ccc(C(=O)N3CCc4cc(-c5nc6cccc(Cl)c6[nH]5)sc4-c4ccc(F)cc43)cc2)c(N2CC3(CCOCC3)C2)n1 = 7.30 to 8.00
• O=C(Nc1ccc(C(=O)N2CCc3cc(-c4nnco4)sc3-c3ccc(F)cc32)cc1)c1cccnc1N1CC2(CCOCC2)C1 = < 7.30
• Cc1cnc(N2CC3(CCOCC3)C2)c(C(=O)Nc2ccc(C(=O)N3CCc4cc(-c5ccc(=O)[nH]c5)sc4-c4ccc(F)cc43)cc2)c1 = > 8.00
• O=C(Nc1c(F)cc(F)cc1F)c1cc2c(o1)-c1ccc(F)cc1N(C(=O)c1ccc(NC(=O)c3cccnc3N3CC4(CCOCC4)C3)cc1)CC2 = > 8.00
• Cc1cnc(N2CC3(CCOCC3)C2)c(C(=O)Nc2ccc(C(=O)N3CCc4cc(-c5c[nH]c6c(C)cccc56)sc4-c4ccc(F)cc43)cc2)c1 = 7.30 to 8.00
• Cc1cnc(N2CC3(CCOCC3)C2)c(C(=O)Nc2ccc(C(=O)N3CCc4cc(C(=O)Nc5nnc(C)s5)sc4-c4ccc(F)cc43)cc2)c1 = 7.30 to 8.00

Next item in the queue.
Q) Can you share its pEC50? I mean this compound: Cc1ccc(C(=O)Nc2ccc(C(=O)N3CCc4cc(NC(=O)OC5CCC5)sc4-c4ccccc43)cc2)c(N2CC3(CCOCC3)C2)n1
A) 7.30 to 8.00

Numbers sourced from patent US11091501B2.
